- SYSTEM_UNDER_TEST: DNA polymerase eta (Homo sapiens) (UniProt Q9Y253)
- Sequence (Q9Y253 whole entry, looked up): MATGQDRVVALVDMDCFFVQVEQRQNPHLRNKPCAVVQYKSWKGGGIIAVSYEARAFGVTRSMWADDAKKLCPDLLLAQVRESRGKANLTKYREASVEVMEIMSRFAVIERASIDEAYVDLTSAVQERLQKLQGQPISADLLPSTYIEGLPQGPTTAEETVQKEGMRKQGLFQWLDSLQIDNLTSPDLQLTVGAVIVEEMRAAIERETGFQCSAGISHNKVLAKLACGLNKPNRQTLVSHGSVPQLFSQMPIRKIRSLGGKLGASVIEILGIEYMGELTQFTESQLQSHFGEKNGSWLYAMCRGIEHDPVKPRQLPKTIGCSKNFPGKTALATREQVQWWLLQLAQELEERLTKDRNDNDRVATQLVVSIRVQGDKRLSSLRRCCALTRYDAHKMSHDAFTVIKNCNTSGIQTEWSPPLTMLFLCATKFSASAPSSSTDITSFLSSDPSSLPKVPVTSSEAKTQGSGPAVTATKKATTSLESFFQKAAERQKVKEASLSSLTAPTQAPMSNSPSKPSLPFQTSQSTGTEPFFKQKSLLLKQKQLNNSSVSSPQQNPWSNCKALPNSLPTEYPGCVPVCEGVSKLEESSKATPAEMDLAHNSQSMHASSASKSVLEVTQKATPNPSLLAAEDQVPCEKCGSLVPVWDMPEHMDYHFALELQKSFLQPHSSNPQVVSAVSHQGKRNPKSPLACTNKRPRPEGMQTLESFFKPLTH
- ASSAY_NAME: qHTS for Inhibitors of Polymerase Eta; note: potency is the fitted concentration of half-maximal effect
- CONDITION_SET: recombinant Pol eta, fluorescent DNA replication assay; series mostly up to 114 µM
Screen size: about 390,000 compounds; about 4,700 (1.2%) were called active. Not shown: some 4% with an inconclusive outcome. Shown is part of a subset that was picked to be rich in actives.
ASSAY_METRIC: Potency

{"columns": ["COMPOUND", "Potency"],
 "data": [
  ["Cc1cccc(NC(=O)CSc2nc3c(c(=O)[nH]2)CCCC3)c1C", "inactive"],
  ["Fc1ccccc1Oc1ncnc2c1oc1ccccc12", "inactive"],
  ["CCOC(=O)C1=C(c2ccccc2)Nc2ncnn2C1c1ccc(Cl)cc1 (stereo not given)", "inactive"],
  ["O=S(=O)(Nc1ccc2[nH]ncc2c1)c1ccccc1Cl", "inactive"],
  ["O=C(Nc1ccc2cn[nH]c2c1)c1ccc(S(=O)(=O)N2CCOCC2)cc1", "inactive"],
  ["O=C(O)c1cc(S(=O)(=O)Nc2ccc3cn[nH]c3c2)ccc1Br", "50.1 µM (active)"],
  ["O=C(CCc1nc2sc3c(c2c(=O)[nH]1)CCCC3)NCC(=O)Nc1ccccc1Br", "8.91 µM (active)"],
  ["Fc1ccc(C(Nc2ccc(Cl)c(C(F)(F)F)c2)c2nnc(-c3ccccc3)o2)cc1 (stereo not given)", "inactive"]
]}

Prompt line: // map `COc1ccccc1N1CCN(CCCNC(=O)c2cnn(-c3ccccc3Cl)c2C2CCN(C(=O)OC(C)(C)C)CC2)CC1` to recorded Potency (system: DNA polymerase eta (Homo sapiens) (UniProt Q9Y253))
Response line: inactive

Prompt line: Also need `COc1ccc(Cl)cc1-n1c(CCC(=O)O)ccc1-c1ccc(C)cc1` , thanks.
Response line: inactive

----------
- SYSTEM_UNDER_TEST: DNA polymerase eta (Homo sapiens)
- ASSAY_NAME: qHTS for Inhibitors of Polymerase Eta
- CONDITION_SET: recombinant Pol eta, fluorescent DNA replication assay; series mostly up to 114 µM
Out of some 390,000 compounds screened, about 4,700 (1.2%) were called active. Not shown: some 4% with an inconclusive outcome. The call rests on the fitted dose curve; in most records, active means well fitted inhibition curve with a large enough effect; inconclusive means small, poorly fitted or top-dose-only effect, or another doubt; inactive means no such curve, though single readings can be large or run the other way. Only a selection was taken, and actives are over-represented in it overall.
// one of active, inactive, no free text

Prompt line: Hello, I am checking results. What call was entered for `COc1ccc(-n2ccnc(NCCc3ccc(Cl)cc3)c2=O)cc1OC` ?
Response line: inactive

Prompt line: Same again, this time with Cc1cc(Cl)ccc1OCC(=O)N(Cc1ccc(N(C)C)cc1)C1CCS(=O)(=O)C1 (stereo not given)
Response line: inactive

Prompt line: Same read-out for COc1ccccc1N1CC(C(=O)Nc2nnc(SCC(=O)NC(C)C)s2)CC1=O (stereo not given) ?
Response line: inactive

Prompt line: Also check O=C(O)C(c1ccccc1)N1C(=O)/C(=C\c2ccc(-c3cccc(Cl)c3)o2)SC1=S (stereo not given)
Response line: active

Prompt line: How about `CCOC(=O)c1c(NC(=O)/C(C#N)=C/c2ccccc2)sc2c1CCC2` ?
Response line: inactive

Prompt line: Further, for CCOC(=O)c1ccc(N2C(=O)c3n[nH]c(-c4ccco4)c3C2c2ccc(O)cc2)cc1 (stereo not given) ?
Response line: inactive

Prompt line: Could you do the same for `COC(=O)c1sccc1S(=O)(=O)N(CC(=O)Nc1ccc(C)c(F)c1)c1ccc(C)c(C)c1` , please?
Response line: inactive

Prompt line: Also, `COc1ccccc1NC(=O)C(=O)c1cc(C)n(-c2ccccc2F)c1C` please.
Response line: inactive

Prompt line: Repeat with Cc1ccccc1N1CC(C(=O)Nc2nnc(SCCC3OCCO3)s2)CC1=O (stereo not given)
Response line: active

Prompt line: Now give it for `COC(=O)c1ccccc1NC(=O)c1cc(-c2ccccc2O)no1` too.
Response line: inactive

----------
- SYSTEM_UNDER_TEST: DNA polymerase eta (Homo sapiens)
- ASSAY_NAME: qHTS for Inhibitors of Polymerase Eta
- CONDITION_SET: recombinant Pol eta, fluorescent DNA replication assay; series mostly up to 114 µM
In all, about 390,000 compounds went through this assay and about 4,700 (1.2%) were called active. Roughly 4% stayed inconclusive and do not appear here. Calls follow the shape of the dose curve; as a rule, active = well fitted inhibition curve with a large enough effect; inconclusive = small, poorly fitted or top-dose-only effect, or another doubt; inactive = no such curve, though single readings can be large or run the other way. Many of the other results were omitted from the sample, so actives are more common in it than they were.
Bench note: report the call from label 1 for active, label 0 for inactive

# example entries with known answers
{"columns": ["MOLECULE", "SYSTEM_UNDER_TEST", "CLASS"],
 "data": [
  ["CC1=C(C(=O)Nc2ccccc2)C(c2ccc(C)cc2)n2nc(SCc3ccccc3C)nc2N1 (stereo not given)", "DNA polymerase eta (Homo sapiens)", "label 0"],
  ["Cc1nn(-c2ccc(F)cc2)c(-n2cccc2)c1C(=O)N1CCN(c2ccccc2)CC1", "DNA polymerase eta (Homo sapiens)", "label 0"],
  ["COc1ccc(NC(=O)CSc2nc3ccccc3[nH]2)cc1", "DNA polymerase eta (Homo sapiens)", "label 0"],
  ["CCOC(=O)C1CCN(C(=O)CSc2c3c(nc4ccc(Cl)cc24)CCCC3)CC1", "DNA polymerase eta (Homo sapiens)", "label 0"],
  ["COC(=O)c1cnn2c(C(F)(F)F)cc(-c3ccco3)nc12", "DNA polymerase eta (Homo sapiens)", "label 1"],
  ["COc1ccc(-c2nc3c4ccccc4n(CC(=O)Nc4ccc(C(C)=O)cc4)c(=O)n3n2)cc1", "DNA polymerase eta (Homo sapiens)", "label 0"],
  ["Cc1nc2ccn(Cc3cccnc3)c(=O)c2cc1C(=O)N1CCN(c2ccccc2F)CC1", "DNA polymerase eta (Homo sapiens)", "label 0"],
  ["O=C(O)c1ccc2c(c1)C(=O)N(c1ccc(/C=C/C(=O)c3ccccc3)cc1)C2=O", "DNA polymerase eta (Homo sapiens)", "label 1"]
]}

Prompt line: # fetch the recorded call for `COc1cccc(Nc2nc3ccccc3c3nncn23)c1` here
Response line: label 0

Prompt line: And then `O=S(=O)(NCCc1nnc2ccc(SCc3ccc(Cl)cc3Cl)nn12)c1ccccc1` , what is it?
Response line: label 0

Prompt line: Moving on to the next molecule: CCCCOc1ccc(CNC(=O)c2ccc3c(c2)N(C)C(=O)C2CCCCN32)cc1 (stereo not given)
Response line: label 0

----------
- SYSTEM_UNDER_TEST: DNA polymerase eta (Homo sapiens) (UniProt Q9Y253)
- ASSAY_NAME: qHTS for Inhibitors of Polymerase Eta
- CONDITION_SET: recombinant Pol eta, fluorescent DNA replication assay; series mostly up to 114 µM
In all, about 390,000 compounds went through this assay and about 4,700 (1.2%) were called active. Roughly 4% stayed inconclusive and do not appear here. The call rests on the fitted dose curve; in most records, active means well fitted inhibition curve with a large enough effect; inconclusive means small, poorly fitted or top-dose-only effect, or another doubt; inactive means no such curve, though single readings can be large or run the other way. The list comes from a sample in which actives are over-represented; it also holds close analogues and randomly drawn compounds.
Answer with one of the outcomes given here: active, inactive

Prompt line: Please indicate how the test categorized `Cc1cc(C(=O)CC#N)c(C)n1-c1c(C)n(C)n(-c2ccccc2)c1=O` .
Response line: inactive

----------
- SYSTEM_UNDER_TEST: DNA polymerase eta (Homo sapiens)
- ASSAY_NAME: qHTS for Inhibitors of Polymerase Eta
- CONDITION_SET: recombinant Pol eta, fluorescent DNA replication assay; series mostly up to 114 µM
- Text: The Y-family of DNA polymerases, such as Pol eta, are specifically involved in DNA repair. Pol eta copies undamaged DNA with a lower fidelity than other DNA-directed polymerases. However, it accurately replicates UV-damaged DNA; when thymine dimers are present, this polymerase inserts the complementary nucleotides in the newly synthesized DNA, thereby bypassing the lesion and suppressing the mutagenic effect of UV-induced DNA damage. […]
About 4,700 (1.2%) of roughly 390,000 compounds were called active. About 4% were inconclusive and are not listed. This excerpt belongs to a sample that is enriched for actives.
ASSAY_METRIC: outcome

{"columns": ["SMILES_TEXT", "ASSAY_METRIC", "RESULT"],
 "data": [
  ["CCCCN(CCCNC(=O)c1cc(Nc2ccccc2OC)nc2ccccc12)c1ccccc1", "outcome", "inactive"],
  ["CN1c2ccc(Cl)cc2-c2nc(SCC(=O)Nc3cc(F)ccc3F)ncc2S1(=O)=O", "outcome", "inactive"],
  ["CCc1cc2c(-c3ccccc3)cc(=O)oc2c2c1OCN(Cc1ccc(C)cc1)C2", "outcome", "inactive"],
  ["CCc1ccc(-n2nnc(-c3nc(-c4ccccc4)no3)c2C)cc1", "outcome", "inactive"]
]}

// moving on: another record for outcome
Prompt line: Can you look up the measured outcome of `CCN(CC)c1ccc(NC(=O)CN2CCN(CC(=O)Nc3ccc(Cl)cc3)CC2)cc1` for me?
Response line: inactive

----------
- SYSTEM_UNDER_TEST: DNA polymerase eta (Homo sapiens)
- ASSAY_NAME: qHTS for Inhibitors of Polymerase Eta
- CONDITION_SET: recombinant Pol eta, fluorescent DNA replication assay; series mostly up to 114 µM
The campaign covered roughly 390,000 compounds. About 4,700 (1.2%) were called active. Roughly 4% stayed inconclusive and do not appear here. The call rests on the fitted dose curve; in most records, active means well fitted inhibition curve with a large enough effect; inconclusive means small, poorly fitted or top-dose-only effect, or another doubt; inactive means no such curve, though single readings can be large or run the other way. The full list was thinned out, with actives kept by preference.
One label from this list, please: active, inactive

Use the examples below as a reference point.
{"columns": ["MOLECULE", "SYSTEM_UNDER_TEST", "CLASS"],
 "data": [
  ["Cc1ccc2nc(-c3ccc(O)cc3)c(Nc3ccc4c(c3)OCO4)n2c1", "DNA polymerase eta (Homo sapiens)", "inactive"],
  ["Cc1ccc2nc(N3C(=O)C(O)=C(C(=O)c4ccco4)C3c3cccc(O)c3)sc2c1 (stereo not given)", "DNA polymerase eta (Homo sapiens)", "active"],
  ["O=C(CSc1ncc(-c2ccccc2)[nH]1)Nc1ccc(F)cc1F", "DNA polymerase eta (Homo sapiens)", "inactive"],
  ["CCCCNC(=O)c1cc(-c2ccc(Cl)c(Cl)c2)on1", "DNA polymerase eta (Homo sapiens)", "inactive"],
  ["C=CCSc1nnc(N2C(=O)C(O)=C(C(=O)c3ccco3)C2c2ccc(F)cc2)s1 (stereo not given)", "DNA polymerase eta (Homo sapiens)", "inactive"],
  ["CC(=O)c1sc(N2C(=O)c3oc4ccccc4c(=O)c3C2c2ccc(C)cc2)nc1C (stereo not given)", "DNA polymerase eta (Homo sapiens)", "inactive"]
]}

Prompt line: Please share the test call associated with COc1cc(CN2CC(C)CC(C)C2)cc([N+](=O)[O-])c1O (stereo not given) .
Response line: inactive
